Recorded values, source paper PMC7378079.

target: TNKS2 (tankyrase 2) ARC4 (Homo sapiens, UniProt Q9H2K2); construct: ARC4 domain (ankyrin repeat cluster 4); CFP-ARC4 fusion in FRET, unlabelled ARC4 in DSF; assay: FRET competition with YFP-TBM peptide (Ki calculated from IC50); DSF Tm shift […] °C at […]; assay type: binding
Sequence (Q9H2K2 484-649 limits assumed): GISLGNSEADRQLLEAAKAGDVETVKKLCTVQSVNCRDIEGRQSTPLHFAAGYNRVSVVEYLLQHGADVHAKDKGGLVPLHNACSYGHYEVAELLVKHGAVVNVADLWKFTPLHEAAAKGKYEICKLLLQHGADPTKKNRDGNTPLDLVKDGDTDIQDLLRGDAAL
measure_name: pKi
A value of pKi is the negative decimal logarithm of a concentration given in moles per litre.

Fill blank: measured pKi of the molecule O=c1[nH]c2cc(C(F)(F)F)c(N3CCOCC3)cc2n(CP(=O)(O)O)c1=O is ____.
4.70
